- Test system: MCF10A
- test summary: 5+ nucleoli phenotype percent effect (relative to siNT 0% and siKIF11 100%); higher = more cells with five or more nucleoli
- setup conditions: 20 nM; 72 h
observed property: 5+ nucleoli phenotype percent effect (%)
Could you give me the number in %? Just the number is fine.

Worked set:
| sequence string | system tested | 5+ nucleoli phenotype percent effect [%] |
| --- | --- | --- |
| UGUCCUCUAGGGCCUGCAGUCU [hsa-miR-3909] | MCF10A | -34.2 |
| CUGCCUGUUCUUCCACUCCAG [hsa-miR-6514-3p] | MCF10A | -62.1 |

Ask: Look at this sequence and give its reported 5+ nucleoli phenotype percent effect. UGGCCCAACCUAUUCAGUUAGU [hsa-miR-3136-3p]
Result: 34.8

Ask: // lookup 5+ nucleoli phenotype percent effect for CACCUCUCCUGGCAUCGCCCC [hsa-miR-6800-3p]
Result: 21.6

Ask: 5+ nucleoli phenotype percent effect lookup needed for CUGGGCCCGCGGCGGGCGUGGGG [hsa-miR-6724-5p] , thanks.
Result: 19.6

Ask: Entry UGAUAUGUUUGAUAUUGGGUU [hsa-miR-190b] has what 5+ nucleoli phenotype percent effect?
Result: -11.2

Ask: Using the record for AAAAGUACUUGCGGAUUU [hsa-miR-548av-5p] , report its 5+ nucleoli phenotype percent effect.
Result: 9.21

Ask: Fill blank: measured 5+ nucleoli phenotype percent effect of the sequence AUAGUCCGAGUAACGUCGGGGC [hsa-miR-6723-5p] is ____.
Result: -28.9

---

Reported one-nucleolus phenotype percent effect by item:
- System: MCF10A
- test summary: one-nucleolus phenotype percent effect (relative to siNT 0% and siNOL11 100%); higher = more cells with one nucleolus (ribosome biogenesis inhibition)
- setup conditions: 20 nM; 72 h
Give just the number in %; leave the unit off.

Reference set (4 entries):
| sequence string | units symbol | one-nucleolus phenotype percent effect |
| --- | --- | --- |
| CACUGUAGGUGAUGGUGAGAGUGGGCA [hsa-miR-1183] | % | 0.199 |
| UGUGCGCAGGGAGACCUCUCCC [hsa-miR-933] | % | 4.65 |
| CUCGGGGCAGGCGGCUGGGAGCG [hsa-miR-6727-5p] | % | -15.9 |
| UGAGGGAGUGGGUGGGAGG [hsa-miR-6127] | % | 3.31 |

Ask: Which one-nucleolus phenotype percent effect value belongs to UUCUCCAAAAGAAAGCACUUUCUG [hsa-miR-515-5p] ?
Result: -9.79

Ask: I have this sequence here, AACCUUGGCCCCUCUCCCCAG [hsa-miR-6813-3p] , and I need its recorded one-nucleolus phenotype percent effect.
Result: -35.3

---

- System: MCF10A
- test summary: 5+ nucleoli phenotype percent effect (relative to siNT 0% and siKIF11 100%); higher = more cells with five or more nucleoli
- setup conditions: 20 nM; 72 h
observed property: 5+ nucleoli phenotype percent effect (%)
Output spec: scalar in %, unitless text.

Ask: For CAGUGCCUCGGCAGUGCAGCCC [hsa-miR-33b-3p] , what is its reported 5+ nucleoli phenotype percent effect?
Result: 24.5

Ask: Name the recorded 5+ nucleoli phenotype percent effect for UGCUGGGGGCCACAUGAGUGUG [hsa-miR-4731-5p] .
Result: -2.14

Ask: Quick one: 5+ nucleoli phenotype percent effect for AAAAGGCAUUGUGGUUUUUG [hsa-miR-548an] ?
Result: -52.6

Ask: Looking for the measured 5+ nucleoli phenotype percent effect of CGAGCCUCAAGCAAGGGACUU [hsa-miR-2114-3p] , can you help?
Result: -15.9

Ask: I am curious: what 5+ nucleoli phenotype percent effect value has been reported for UGAGAUGAAGCACUGUAGCUC [hsa-miR-143-3p] ?
Result: -1.77
